B1: NEK8 (parent)
chain: VVGTPCYISPELCEGKPYNQKSDI

# Variants of: B1
# ASSAY_PROCEDURE: protein stability index of a GFP-peptide fusion (GPS, HEK-293T) (PSI 1-6); higher = more stable;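 note: lentivirally expressed fusions sorted by FACS into six bins by GFP to DsRed ratio, PSI derived from sequencing read proportions per bin multiplied by bin number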
# CONDITION_SUMMARY: c terminus: a fixed tail appended

{"columns": ["MUTANT_NAME", "protein stability index"],
 "data": [
  ["Q20E", 2.63],
  ["C6Q", 4.11],
  ["S9H", 2.04],
  ["C6K", 3.48],
  ["I24F", 2.51],
  ["V1D", 4.53],
  ["I8H", 3.2],
  ["E14A", 2.49],
  ["E14F", 1.82],
  ["V1F", 1.22],
  ["Y18R", 3.58],
  ["P10M", 2.24],
  ["T4I", 1.75],
  ["K16G", 2.55],
  ["I24Q", 3.33],
  ["P10N", 3.44],
  ["L12A", 3.1],
  ["S22E", 3.31],
  ["I8T", 3.77],
  ["L12H", 3.59],
  ["K16H", 2.15],
  ["P10E", 3.6]
]}
